tested on: NCI-H2228 (Lung Adenocarcinoma); assay: combination Emax (second highest fraction inhibited in the dose matrix, 72 h); higher = more inhibition; extreme values may be limits of the assay
Measured quantity: combination Emax
Numbers only.

INSERT INTO assay_data (compound, quantitative_result) VALUES
  ('CN(CCO)CC[C@H](CSc1ccccc1)Nc1ccc(S(=O)(=O)NC(=O)c2ccc(N3CCC([C@@H](O)c4ccccc4-c4ccc(Cl)cc4)CC3)cc2)cc1S(=O)(=O)C(F)(F)F [AZD4320] + C[C@@H](Nc1cc(F)cc(F)c1)c1cc(C(=O)N(C)C)cc2c(=O)cc(N3CCOCC3)oc12 [AZD8186] (first compound max 1 µM, 7x7, partner max 3 µM)', 0.329),
  ('COc1nnc2ccc(N3CCC(c4ccc(OCCN5CCN(C)C(=O)[C@H]5C)cc4)CC3)nn12 [AZD5153] + Cn1cnc2c(F)c(Nc3ccc(Br)cc3Cl)c(C(=O)NOCCO)cc21 [Selumetinib] (first compound max 1 µM, 7x7, partner max 10 µM)', 0.428),
  ('COc1cccc(OCCCN)c1-c1cc(Nc2cnc(C#N)cn2)n[nH]1 [Prexasertib] + Cc1cc2ncnn2cc1Nc1ncc2c(n1)n(C1CCOCC1)c(=O)n2C [AZD7648] (first compound max 1 µM, 7x7, partner max 10 µM)', 0.682);

Hello, I would appreciate it if you could give combination Emax for each entry below.
1. COc1cc2c(cc1OCCCCCOc1cc3c(cc1OC)C(=O)N1C=C(C)C[C@H]1C=N3)N=C[C@@H]1CC(C)=CN1C2=O [SG3199] + O=C(c1cc(Cc2n[nH]c(=O)c3ccccc23)ccc1F)N1CCN(C(=O)C2CC2)CC1 [Olaparib] (first compound max 0.001 µM, 7x7, partner max 10 µM)
2. CN(CCO)CC[C@H](CSc1ccccc1)Nc1ccc(S(=O)(=O)NC(=O)c2ccc(N3CCC([C@@H](O)c4ccccc4-c4ccc(Cl)cc4)CC3)cc2)cc1S(=O)(=O)C(F)(F)F [AZD4320] + Cn1cnc2c(F)c(Nc3ccc(Br)cc3Cl)c(C(=O)NOCCO)cc21 [Selumetinib] (first compound max 1 µM, 7x7, partner max 3 µM)
3. CC1(C)CCC(CN2CCN(c3ccc(C(=O)NS(=O)(=O)c4ccc(NCC5CCOCC5)c([N+](=O)[O-])c4)c(Oc4cnc5[nH]ccc5c4)c3)CC2)=C(c2ccc(Cl)cc2)C1 [Venetoclax] + C[C@@H](Nc1cc(F)cc(F)c1)c1cc(C(=O)N(C)C)cc2c(=O)cc(N3CCOCC3)oc12 [AZD8186] (first compound max 1 µM, 7x7, partner max 3 µM)
4. NC1(C(=O)N[C@@H](CCO)c2ccc(Cl)cc2)CCN(c2ncnc3[nH]ccc23)CC1 [Capivasertib] + C[C@@H]1COCCN1C2=NC(=NC(=C2)C3(CC3)[S@](=N)(=O)C)C4=C5C=CNC5=NC=C4 [AZD6738] (first compound max 10 µM, 7x7, partner max 10 µM)
5. Cc1c2c(nn1C)CSCc1cc(n(C)n1)CSc1cc(c3ccccc3c1)OCCCc1c(C(=O)O)n(C)c3c-2c(Cl)ccc13 [AZD5991] + CC1(C)CCC(CN2CCN(c3ccc(C(=O)NS(=O)(=O)c4ccc(NCC5CCOCC5)c([N+](=O)[O-])c4)c(Oc4cnc5[nH]ccc5c4)c3)CC2)=C(c2ccc(Cl)cc2)C1 [Venetoclax] (first compound max 1 µM, 7x7, partner max 1 µM)
6. CC1(C)CCC(CN2CCN(c3ccc(C(=O)NS(=O)(=O)c4ccc(NCC5CCOCC5)c([N+](=O)[O-])c4)c(Oc4cnc5[nH]ccc5c4)c3)CC2)=C(c2ccc(Cl)cc2)C1 [Venetoclax] + CCN(CCO)CCCOc1ccc2c(Nc3cc(CC(=O)Nc4cccc(F)c4)[nH]n3)ncnc2c1 [AZD2811] (first compound max 1 µM, 7x7, partner max 1 µM)
7. C=CCn1c(=O)c2cnc(Nc3ccc(N4CCN(C)CC4)cc3)nc2n1-c1cccc(C(C)(C)O)n1 [AZD1775] + C[C@@H]1COCCN1C2=NC(=NC(=C2)C3(CC3)[S@](=N)(=O)C)C4=C5C=CNC5=NC=C4 [AZD6738] (first compound max 1 µM, partner max 10 µM)

[A]
0.115
0.203
0.293
0.575
0.184
0.253
0.653

* * *

tested on: OACp4C (Esophageal Adenocarcinoma); test: Bliss excess, mean over the matrix (fraction); higher = more synergy;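 further: after 72 h of two-drug dosing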
So I've got a bunch of molecules here, and I need their Bliss excess values.
One number for each entry.

INSERT INTO assay_data (molecule, target_entity, measured_quantity, quantitative_result) VALUES
  ('CC1(C)CCC(CN2CCN(c3ccc(C(=O)NS(=O)(=O)c4ccc(NCC5CCOCC5)c([N+](=O)[O-])c4)c(Oc4cnc5[nH]ccc5c4)c3)CC2)=C(c2ccc(Cl)cc2)C1 [Venetoclax] + C=CCn1c(=O)c2cnc(Nc3ccc(N4CCN(C)CC4)cc3)nc2n1-c1cccc(C(C)(C)O)n1 [AZD1775] (first compound max 1 µM, partner max 1 µM)', 'OACp4C (Esophageal Adenocarcinoma)', 'Bliss excess', -0.03),
  ('Cc1c2c(nn1C)CSCc1cc(n(C)n1)CSc1cc(c3ccccc3c1)OCCCc1c(C(=O)O)n(C)c3c-2c(Cl)ccc13 [AZD5991] + C1CN(CCC1(C(=O)N[C@@H](CCO)C2=CC=C(C=C2)Cl)N)C3=NC=NC4=C3C=CN4 [Capivasertib] (first compound max 1 µM, 7x7, partner max 3 µM)', 'OACp4C (Esophageal Adenocarcinoma)', 'Bliss excess', 0.019);

Here's the next entry for you.
[Q] Please look up its Bliss excess: CN(C)CCCOc1ccc(-c2ccc3ncc4c(c3c2)n(C2CCOCC2)c(=O)n4C)cn1 [AZD0156] + CCN(CCO)CCCOc1ccc2c(Nc3cc(CC(=O)Nc4cccc(F)c4)[nH]n3)ncnc2c1 [AZD2811] (first compound max 1 µM, 7x7, partner max 1 µM)
[A] 0.0091

* * *

test system: A204 (Rhabdomyosarcoma); assay: combination Emax (second highest fraction inhibited in the dose matrix, 72 h); higher = more inhibition; extreme values may be limits of the assay
Would you mind telling me the reported combination Emax of each entry?
Numbers only.

INSERT INTO measurements (compound, quantitative_result) VALUES
  ('CC1(C)CCC(CN2CCN(c3ccc(C(=O)NS(=O)(=O)c4ccc(NCC5CCOCC5)c([N+](=O)[O-])c4)c(Oc4cnc5[nH]ccc5c4)c3)CC2)=C(c2ccc(Cl)cc2)C1 [Venetoclax] + C1CN(CCC1(C(=O)N[C@@H](CCO)C2=CC=C(C=C2)Cl)N)C3=NC=NC4=C3C=CN4 [Capivasertib] (first compound max 1 µM, 7x7, partner max 3 µM)', 0.335);

For every item in the list below, what is its measured combination Emax?
1. CN(CCO)CC[C@H](CSc1ccccc1)Nc1ccc(S(=O)(=O)NC(=O)c2ccc(N3CCC([C@@H](O)c4ccccc4-c4ccc(Cl)cc4)CC3)cc2)cc1S(=O)(=O)C(F)(F)F [AZD4320] + C[C@@H](Nc1cc(F)cc(F)c1)c1cc(C(=O)N(C)C)cc2c(=O)cc(N3CCOCC3)oc12 [AZD8186] (first compound max 1 µM, 7x7, partner max 3 µM)
2. CN(CCO)CC[C@H](CSc1ccccc1)Nc1ccc(S(=O)(=O)NC(=O)c2ccc(N3CCC([C@@H](O)c4ccccc4-c4ccc(Cl)cc4)CC3)cc2)cc1S(=O)(=O)C(F)(F)F [AZD4320] + CN(C)CCCOc1ccc(-c2ccc3ncc4c(c3c2)n(C2CCOCC2)c(=O)n4C)cn1 [AZD0156] (first compound max 1 µM, 7x7, partner max 1 µM)
3. COc1nnc2ccc(N3CCC(c4ccc(OCCN5CCN(C)C(=O)[C@H]5C)cc4)CC3)nn12 [AZD5153] + CN(CC[C@H](CSC1=CC=CC=C1)NC2=C(C=C(C=C2)S(=O)(=O)NC(=O)C3=CC=C(C=C3)N4CCC(CC4)[C@H](C5=CC=CC=C5C6=CC=C(C=C6)Cl)O)S(=O)(=O)C(F)(F)F)CCO [AZD4320] (first compound max 1 µM, 7x7, partner max 1 µM)
4. CS(=O)(=O)CCNCc1ccc(-c2ccc3ncnc(Nc4ccc(OCc5cccc(F)c5)c(Cl)c4)c3c2)o1 [Lapatinib] + C[C@@H](Oc1cc(-c2cnn(C3CCNCC3)c2)cnc1N)c1c(Cl)ccc(F)c1Cl [Crizotinib] (first compound max 10 µM, 7x7, partner max 10 µM)

[A]
0.451
0.223
0.464
0.498

Batch: combination Emax for all items listed.
1. COc1cccc(OCCCN)c1-c1cc(Nc2cnc(C#N)cn2)n[nH]1 [Prexasertib] + Cc1cc2ncnn2cc1Nc1ncc2c(n1)n(C1CCOCC1)c(=O)n2C [AZD7648] (first compound max 1 µM, 7x7, partner max 10 µM)
2. Cn1cnc2c(F)c(Nc3ccc(Br)cc3Cl)c(C(=O)NOCCO)cc21 [Selumetinib] + C=CCn1c(=O)c2cnc(Nc3ccc(N4CCN(C)CC4)cc3)nc2n1-c1cccc(C(C)(C)O)n1 [AZD1775] (first compound max 10 µM, partner max 1 µM)

[A]
1: 0.528; 2: 0.276
